Test: Neurotoxicity in mouse HT22 cells assessed as cell viability after 24 hrs by MTS assay
Format: toxicity, cell-based, HT-22
Conditions: read-out: TC50
Metric Name: CC50 at 24 h

Query block: Reported CC50 at 24 h, compound `CC(C)NC1=CC(=O)c2ccccc2C1=O` : ____
Result block: 46 µM

Query block: // query CC50 at 24 h value for entry `O=C1C=C(NCc2ccncc2)C(=O)c2ccccc21`
Result block: 80 µM

Query block: What value of measured CC50 at 24 h is listed for O=C1C=CC(=O)c2ccccc21 [NAPHTHOQUINONE] ?
Result block: 19 µM

Query block: # CC50 at 24 h lookup, item `CN(C)C1=CC(=O)c2ccccc2C1=O`
Result block: > 100 µM

Query block: Entry `O=C(O)C1=CC(=O)c2ccccc2C1=O` : reported CC50 at 24 h = ?
Result block: > 100 µM

Query block: Need CC50 at 24 h of `CC1=C(C)C(=O)c2ccccc2C1=O` , thanks.
Result block: 30 µM

Query block: Entry under review: `O=C1C=C(NCc2ccc(Cl)cc2)C(=O)c2ccccc21` . Reported CC50 at 24 h?
Result block: > 100 µM

Query block: Item under review: `O=C1C=C(NCCc2ccccc2)C(=O)c2ccccc21` . Reported CC50 at 24 h?
Result block: > 100 µM

Query block: State the recorded CC50 at 24 h for this entry: `O=C1C=C(NCc2cccc(Cl)c2)C(=O)c2ccccc21`
Result block: > 100 µM

Query block: # CC50 at 24 h lookup, item `O=C1C=C(NCc2ccc(Cl)c(Cl)c2)C(=O)c2ccccc21`
Result block: > 100 µM

Query block: For the compound shown here, `O=C1C=C(NCc2ccccn2)C(=O)c2ccccc21` , give the reported CC50 at 24 h.
Result block: 50 µM

Query block: Query: CC50 at 24 h; subject: O=C1C=C(O)C(=O)c2ccccc21 [LAWSONE]
Result block: > 100 µM

Query block: Any idea what CC50 at 24 h was measured for `CC1=C(N)C(=O)c2ccccc2C1=O` ?
Result block: 54 µM

Query block: If you can, please state the reported CC50 at 24 h value of `O=C1C=C(NC2CCCC2)C(=O)c2ccccc21` .
Result block: 44 µM

Query block: Dear colleague, I am looking for the recorded CC50 at 24 h of the following compound: `O=C1C=C(NCc2cccc(C(F)(F)F)c2)C(=O)c2ccccc21`
Result block: > 100 µM

Query block: What value of measured CC50 at 24 h is listed for `COC(=O)c1ccc(CNC2=CC(=O)c3ccccc3C2=O)cc1` ?
Result block: > 100 µM

Query block: Can you look up the measured CC50 at 24 h of `CNC1=CC(=O)c2ccccc2C1=O` for me?
Result block: > 100 µM

Query block: Recorded CC50 at 24 h for `O=C1C=C(NCC2CCCCC2)C(=O)c2ccccc21` , please?
Result block: > 100 µM

Query block: Fill blank: measured CC50 at 24 h of the compound CC(C)=CCC/C(C)=C/CC/C(C)=C/CC/C(C)=C/CC1=C(C)C(=O)c2ccccc2C1=O [MENATETRENONE] is ____.
Result block: > 100 µM

Query block: Entry `O=C1C=C(NCc2ccccc2)C(=O)c2ccccc21` : reported CC50 at 24 h = ?
Result block: > 100 µM

Query block: Report CC50 at 24 h for `CCCNC1=CC(=O)c2ccccc2C1=O` please.
Result block: 30 µM

Query block: Would you mind telling me what CC50 at 24 h value was observed for `NC1=CC(=O)c2ccccc2C1=O` ?
Result block: 49 µM

Query block: Please look up its CC50 at 24 h: `COc1ccc(CNC2=CC(=O)c3ccccc3C2=O)cc1`
Result block: > 100 µM

Query block: Could you share which CC50 at 24 h value was measured for `Cc1ccc(CNC2=CC(=O)c3ccccc3C2=O)cc1` ?
Result block: > 100 µM

Query block: Look up CC50 at 24 h for this compound: `C#CCNC1=CC(=O)c2ccccc2C1=O`
Result block: 53 µM

Query block: I would be grateful if you could share the reported CC50 at 24 h for `O=C1C=C(NCc2cccnc2)C(=O)c2ccccc21` .
Result block: 37 µM

Query block: Give its CC50 at 24 h value. Item: `O=C1C=C(Nc2ccccc2)C(=O)c2ccccc21`
Result block: 7 µM

Query block: What measured CC50 at 24 h goes with `CN(Cc1ccccc1)C1=CC(=O)c2ccccc2C1=O` ?
Result block: > 100 µM

Query block: Please report the recorded CC50 at 24 h for `CCNC1=CC(=O)c2ccccc2C1=O` .
Result block: 81 µM

Query block: Quick check: CC50 at 24 h of CC1=CC(=O)c2ccccc2C1=O [MENADIONE] ?
Result block: 19 µM
